- MEASUREMENT_PROTOCOL: Inhibition of Wnt/beta-catenin (unknown origin)
- Set-up: species or system Homo sapiens
EXPERIMENTAL_READOUT: Ki (µM)

                                   compound  unit_label  recorded_value
0  CCCCC(O)c1[nH]c2cc(C)c(C(=O)O)cc2c1CCc1ccccc1 (stereo unspecified)          µM              29

Taken from ChEMBL document CHEMBL3600343.
